# IC50 listing for each entry below
- target_of_assay: UniProtKB Q72547
- procedure_details: Inhibition of HIV1 reverse transcriptase p66/p51
- condition_context: read-out: IC50
Numeric only. Scale: µM

* Cc1cc(C)cc(S(=O)(=O)c2c(C(=O)NC(C)CC(N)=O)[nH]c3ccc(Cl)c(F)c23)c1 (centres undefined) | 0.359
* Cc1cc(C)cc(S(=O)(=O)c2c(C(=O)NC(C)CS(N)(=O)=O)[nH]c3ccc(Cl)cc23)c1 (centres undefined) | 0.0004
* Cc1cc(C)cc(S(=O)(=O)c2c(C(=O)NC(C)C(N)=O)[nH]c3ccc(Cl)c(F)c23)c1 (centres undefined) | 0.062

Could you now look at the following compound, please?
Complete the entry with IC50 for Cc1cc(C)cc(S(=O)(=O)c2c(C(=O)N[C@@H](C)C(N)=O)[nH]c3ccc(Cl)cc23)c1 0.026
